- Target of assay: NAD-dependent protein deacylase sirtuin-5, mitochondrial (Homo sapiens) (UniProt Q9NXA8)
- Sequence (Q9NXA8 whole entry, looked up): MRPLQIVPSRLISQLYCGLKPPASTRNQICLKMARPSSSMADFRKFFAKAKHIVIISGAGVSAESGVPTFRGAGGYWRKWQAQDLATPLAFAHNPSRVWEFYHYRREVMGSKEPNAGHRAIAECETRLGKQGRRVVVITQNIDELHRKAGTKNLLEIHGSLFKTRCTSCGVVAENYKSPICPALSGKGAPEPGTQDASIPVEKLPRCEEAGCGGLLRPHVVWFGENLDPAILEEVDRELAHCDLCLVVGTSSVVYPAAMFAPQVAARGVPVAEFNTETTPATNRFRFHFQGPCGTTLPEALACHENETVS
- Measurement description: blockers of sirtuin-5 deacylase activity – biochemical, fluorescence imaging, single point, set 5, primary screen (AID 652115)
- Condition info: Purified SirT5, succinyl-peptide AMC, trypsin-coupled fluorescence; at 15 µM; hits give high values
The campaign covered roughly 330,000 compounds. About 3,800 (1.2%) were called active. This is one part of a sample in which actives are shown more often than they occur.
Readout: inhibition (%)
// note: answer is a bare numeric in %

According to the records, this compound Cc1sc2c(c1C)c(=O)n(-c1ccccc1)c(=O)n2CC(=O)NCC1CCCO1 (centres undefined) displays inhibition of -4.65

According to the records, this compound Cc1cc(N2C(=O)C(O)=C(C(=O)c3ccc(C)o3)C2c2ccc(OCc3ccccc3)cc2)no1 (centres undefined) displays inhibition of 19.4

According to the records, this compound C[C@@H]1CCCCO[C@@H](CN(C)Cc2ccc3c(c2)OCO3)[C@H](C)CN([C@@H](C)CO)C(=O)c2cc(NS(C)(=O)=O)ccc2O1 displays inhibition of -3.83

According to the records, this compound C[C@H](CO)N1C[C@H](C)[C@H](CN(C)C(=O)CCC(F)(F)F)OCCCC[C@H](C)Oc2ccc(NS(=O)(=O)c3ccc(F)cc3)cc2C1=O displays inhibition of 6.37
